Entries and their EC20
Target: rat PTH1R (Rattus norvegicus)
Construct: expressed in transfected cells
Sequence (P25961 27-591): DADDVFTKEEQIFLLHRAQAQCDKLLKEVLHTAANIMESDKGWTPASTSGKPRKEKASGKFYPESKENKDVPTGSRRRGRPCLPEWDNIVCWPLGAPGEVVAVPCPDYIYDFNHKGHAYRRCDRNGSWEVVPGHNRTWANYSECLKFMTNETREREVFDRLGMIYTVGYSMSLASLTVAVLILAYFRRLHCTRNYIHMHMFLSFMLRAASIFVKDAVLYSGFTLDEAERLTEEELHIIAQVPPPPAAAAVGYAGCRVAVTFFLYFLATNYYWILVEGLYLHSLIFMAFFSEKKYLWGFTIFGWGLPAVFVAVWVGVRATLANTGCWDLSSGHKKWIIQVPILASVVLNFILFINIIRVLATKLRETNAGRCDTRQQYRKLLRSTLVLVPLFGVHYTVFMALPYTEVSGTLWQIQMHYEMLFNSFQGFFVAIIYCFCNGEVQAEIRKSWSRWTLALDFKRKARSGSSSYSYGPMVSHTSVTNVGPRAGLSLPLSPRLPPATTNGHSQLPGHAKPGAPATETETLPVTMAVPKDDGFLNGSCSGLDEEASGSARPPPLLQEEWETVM
Test: In vitro cAMP signaling activity via the rat PTH1R (LLC-PK46_RATO_PTH1R cells)
Format: cell-based
Settings: LLC-PK46_RATO_PTH1R cells overexpressing rat PTH1R
MEASUREMENT_TYPE: EC20

COMPOUND: Cc1cc(N2C(=O)NC(=O)C23CC3)cc(C)c1CCS(=O)(=O)N1CCC2(CC1)N=C(c1ccc(OC(F)(F)F)cc1)NC2=O
MEASUREMENT_TARGET: rat PTH1R (Rattus norvegicus)
MEASUREMENT_TYPE: EC20
RESULT: 0.8 µM
//
COMPOUND: Cc1cc(N2C(=O)NC(=O)C23CCCC3)cc(C)c1CCS(=O)(=O)N1CCC2(CC1)N=C(c1ccc(OC(F)(F)F)cc1)NC2=O
MEASUREMENT_TARGET: rat PTH1R (Rattus norvegicus)
MEASUREMENT_TYPE: EC20
RESULT: 0.4 µM
//
COMPOUND: Cc1cc(N2C(=O)CNC2=O)ccc1CCS(=O)(=O)N1CCC2(CC1)N=C(c1cccc(OC(F)(F)F)c1)NC2=O [Comparative Example 1, reference compound]
MEASUREMENT_TARGET: rat PTH1R (Rattus norvegicus)
MEASUREMENT_TYPE: EC20
RESULT: 0.8 µM
//
COMPOUND: Cc1cc(N2C(=O)NC(=O)C2(C)C)cc(C)c1CCS(=O)(=O)N1CCC2(CC1)N=C(c1ccc(OC(F)(F)F)cc1)NC2=O
MEASUREMENT_TARGET: rat PTH1R (Rattus norvegicus)
MEASUREMENT_TYPE: EC20
RESULT: 0.5 µM
//
COMPOUND: Cc1cc(N2C(=O)NC(=O)C23COC3)cc(C)c1CCS(=O)(=O)N1CCC2(CC1)N=C(c1ccc(OC(F)(F)F)cc1)NC2=O
MEASUREMENT_TARGET: rat PTH1R (Rattus norvegicus)
MEASUREMENT_TYPE: EC20
RESULT: 3.0 µM

###

Target: human PTH1R (Homo sapiens, UniProt Q03431)
Construct: expressed in transfected cells; host or cells: HKRK-B7 (LLC-PK1 porcine kidney cells stably expressing human PTH1R)
Sequence (Q03431 27-593): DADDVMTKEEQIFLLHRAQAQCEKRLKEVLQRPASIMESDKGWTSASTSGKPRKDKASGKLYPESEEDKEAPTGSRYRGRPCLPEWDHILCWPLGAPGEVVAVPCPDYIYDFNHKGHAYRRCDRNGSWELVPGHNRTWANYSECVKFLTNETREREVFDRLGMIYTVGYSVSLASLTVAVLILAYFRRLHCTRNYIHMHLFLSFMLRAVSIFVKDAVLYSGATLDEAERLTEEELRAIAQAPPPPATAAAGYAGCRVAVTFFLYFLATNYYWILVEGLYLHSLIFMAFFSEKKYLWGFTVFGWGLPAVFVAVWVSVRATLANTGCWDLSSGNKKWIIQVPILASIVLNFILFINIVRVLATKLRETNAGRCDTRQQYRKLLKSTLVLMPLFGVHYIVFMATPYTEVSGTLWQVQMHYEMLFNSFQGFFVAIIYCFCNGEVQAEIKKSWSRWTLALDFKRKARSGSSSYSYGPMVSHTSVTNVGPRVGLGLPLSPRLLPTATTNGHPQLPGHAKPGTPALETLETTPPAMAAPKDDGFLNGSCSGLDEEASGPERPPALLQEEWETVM
Test: In vitro cAMP signal activity via the human PTH1R (HKRK-B7 cells)
Assay type: cell-based
Conditions: concentration at 20% cAMP signaling activity, human PTH(1-34) at 100 nM = 100%
MEASUREMENT_TYPE: EC20 (µM)

COMPOUND: Cc1cc(N2C(=O)CNC2=O)cc(C)c1CCS(=O)(=O)N1CCC2(CC1)N=C(c1ccc(F)c(C(F)(F)F)c1)NC2=O [Comparative Example 3, reference compound]
MEASUREMENT_TARGET: human PTH1R (Homo sapiens, UniProt Q03431)
MEASUREMENT_TYPE: EC20
SIGN_QUALIFIER: =
NUMBER: 2.0

COMPOUND: CC[C@H]1CC[C@H](C2=NC3(CCN(S(=O)(=O)CCc4ccc(N5C(=O)NC(=O)C5C)cc4C)CC3)C(=O)N2)CC1 (stereo partly drawn) [Comparative Example 5, reference compound]
MEASUREMENT_TARGET: human PTH1R (Homo sapiens, UniProt Q03431)
MEASUREMENT_TYPE: EC20
SIGN_QUALIFIER: =
NUMBER: 3.1

COMPOUND: Cc1cc(N2C(=O)CNC2=O)cc(C)c1CCS(=O)(=O)N1CCC2(CC1)N=C(c1cccc(OC(F)(F)F)c1)NC2=O [Comparative Example 2, reference compound]
MEASUREMENT_TARGET: human PTH1R (Homo sapiens, UniProt Q03431)
MEASUREMENT_TYPE: EC20
SIGN_QUALIFIER: =
NUMBER: 3.1

COMPOUND: CCC1CCC(C2=NC3(CCN(S(=O)(=O)CCc4ccc(N5CC(=O)NC5=O)cc4C)CC3)C(=O)N2)CC1 (stereo not drawn) [Comparative Example 4, reference compound]
MEASUREMENT_TARGET: human PTH1R (Homo sapiens, UniProt Q03431)
MEASUREMENT_TYPE: EC20
SIGN_QUALIFIER: >
NUMBER: 505

COMPOUND: CC[C@H]1CC[C@H](C2=NC3(CCN(S(=O)(=O)CCc4ccc(N5C(=O)NC(=O)C5(C)C)cc4C)CC3)C(=O)N2)CC1 [Comparative Example 6, reference compound]
MEASUREMENT_TARGET: human PTH1R (Homo sapiens, UniProt Q03431)
MEASUREMENT_TYPE: EC20
SIGN_QUALIFIER: =
NUMBER: 3.6

COMPOUND: Cc1cc(N2C(=O)NC(=O)C2(C)C)cc(C)c1CCS(=O)(=O)N1CCC2(CC1)N=C(c1ccc(F)c(C(F)(F)F)c1)NC2=O
MEASUREMENT_TARGET: human PTH1R (Homo sapiens, UniProt Q03431)
MEASUREMENT_TYPE: EC20
SIGN_QUALIFIER: =
NUMBER: 1.5

COMPOUND: Cc1cc(N2C(=O)CNC2=O)ccc1CCS(=O)(=O)N1CCC2(CC1)N=C(c1cccc(OC(F)(F)F)c1)NC2=O [Comparative Example 1, reference compound]
MEASUREMENT_TARGET: human PTH1R (Homo sapiens, UniProt Q03431)
MEASUREMENT_TYPE: EC20
SIGN_QUALIFIER: =
NUMBER: 1.5

COMPOUND: Cc1cc(N2C(=O)NC(=O)C2(C)C)cc(C)c1CCS(=O)(=O)N1CCC2(CC1)N=C(c1ccc(F)c(OC(F)(F)F)c1)NC2=O
MEASUREMENT_TARGET: human PTH1R (Homo sapiens, UniProt Q03431)
MEASUREMENT_TYPE: EC20
SIGN_QUALIFIER: =
NUMBER: 1.3

COMPOUND: Cc1cc(N2C(=O)NC(=O)C2(C)C)cc(C)c1CCS(=O)(=O)N1CCC2(CC1)N=C(c1cccc(Br)c1)NC2=O
MEASUREMENT_TARGET: human PTH1R (Homo sapiens, UniProt Q03431)
MEASUREMENT_TYPE: EC20
SIGN_QUALIFIER: =
NUMBER: 2.4

COMPOUND: Cc1cc(N2C(=O)NC(=O)C23CC3)cc(C)c1CCS(=O)(=O)N1CCC2(CC1)N=C(c1ccc(OC(F)(F)F)cc1)NC2=O
MEASUREMENT_TARGET: human PTH1R (Homo sapiens, UniProt Q03431)
MEASUREMENT_TYPE: EC20
SIGN_QUALIFIER: =
NUMBER: 1.5

COMPOUND: Cc1cc(N2C(=O)NC(=O)C2(C)C)cc(C)c1CCS(=O)(=O)N1CCC2(CC1)N=C(c1ccc3c(c1)OC(F)(F)O3)NC2=O
MEASUREMENT_TARGET: human PTH1R (Homo sapiens, UniProt Q03431)
MEASUREMENT_TYPE: EC20
SIGN_QUALIFIER: =
NUMBER: 1.7

COMPOUND: Cc1cc(N2C(=O)NC(=O)C2(C)C)cc(C)c1CCS(=O)(=O)N1CCC2(CC1)N=C(c1ccc(OC(F)(F)F)c(F)c1)NC2=O
MEASUREMENT_TARGET: human PTH1R (Homo sapiens, UniProt Q03431)
MEASUREMENT_TYPE: EC20
SIGN_QUALIFIER: =
NUMBER: 1.6

###

Target: human PTH1R (Homo sapiens, UniProt Q03431)
Experiment: In vitro cAMP signal activity via the human PTH1R (HKRK-B7 cells)
Settings: concentration at 50% cAMP signaling activity, human PTH(1-34) at 100 nM = 100%
Method: Human PTH(1-34) and calcitonin were purchased from Peptide Institute, Inc. (Osaka, Japan), dissolved in 10 mM acetic acid to 1 mM and stored in a −80° C. freezer. […] HKRK-B7 or LLC-PK1 cells were seeded into a 96-well plate at 1×10^5 cells/well and incubated overnight. […] The amount of intracellular cAMP produced was measured using a commercially available cAMP EIA kit (Biotrack cAMP EIA system, GE health care). […]
pEC50: −log10 of the molar value.
MEASUREMENT_TYPE: pEC50

ITEM_SMILES: Cc1cc(N2C(=O)NC(=O)C2(C)C)cc(C)c1CCS(=O)(=O)N1CCC2(CC1)N=C(c1ccc(F)c(C(F)(F)F)c1)NC2=O
MEASUREMENT_TARGET: human PTH1R (Homo sapiens, UniProt Q03431)
NUMBER: 5.14

###

Entries and their EC20
Biological target: human PTH1R (Homo sapiens, UniProt Q03431)
Construct: expressed in transfected cells; host or cells: HKRK-B7 (LLC-PK1 porcine kidney cells stably expressing human PTH1R)
Experiment: In vitro cAMP signal activity via the human PTH1R (HKRK-B7 cells)
Assay type: cell-based
Details: concentration at 20% cAMP signaling activity, human PTH(1-34) at 100 nM = 100%

ITEM_SMILES: Cc1cc(N2C(=O)NC(=O)C2(C)C)cc(C)c1CCS(=O)(=O)N1CCC2(CC1)N=C(c1cccc(C(F)(F)F)c1)NC2=O
EC20: 2000 nM

ITEM_SMILES: Cc1cc(N2C(=O)NC(=O)C23CCN(C)CC3)cc(C)c1CCS(=O)(=O)N1CCC2(CC1)N=C(c1ccc(OC(F)(F)F)cc1)NC2=O
EC20: 2600 nM

ITEM_SMILES: Cc1cc(N2C(=O)NC(=O)C23COC3)cc(C)c1CCS(=O)(=O)N1CCC2(CC1)N=C(c1ccc(OC(F)(F)F)cc1)NC2=O
EC20: 5000 nM

ITEM_SMILES: Cc1cc(N2C(=O)NC(=O)C2(C)C)cc(C)c1CCS(=O)(=O)N1CCC2(CC1)N=C(c1ccc(OC(F)(F)F)cc1)NC2=O
EC20: 1100 nM
